- test_method_notes: Pharmacokinetic study, oral administration, dog
- Assay type: in vivo
- test_parameters: plasma, 25 mg/kg, 25 mpk
endpoint_name: bioavailability

[2H]C([2H])([2H])CC(=O)c1cnc(NC(=O)C2CC2)cc1Nc1cccc(-c2cnc(N=S(C)(C)=O)cn2)c1OC | 103%

====

- test_method_notes: Pharmacokinetic study, oral administration, rat
- Format: in vivo, SD rats
- test_parameters: plasma, 30 mg/kg, 30 mpk
- Experimental: The purpose of this experiment is to study the pharmacokinetics of the test substance in the plasma of male CD-1 mice, SD rats and […] after intravenous injection and oral administration. The animals were randomly divided into two groups, with 2 males in each group. The compounds were formulated into the specified formulations (the vehicle was 5 mg/mL of 10% sulfobutyl ether-β-cyclodextrin), and the oral formulations were clear or homogeneous suspensions. […]
endpoint_name: AUC(0-t)

[2H]C([2H])([2H])CC(=O)c1cnc(NC(=O)C2CC2)cc1Nc1cccc(-c2cnc(N=S(C)(C)=O)cn2)c1OC [Compound of formula (I)] | 231 µM·h

====

- test_method_notes: Pharmacokinetic study, oral administration, dog
- Type: in vivo
- test_parameters: plasma, 25 mg/kg, 25 mpk
endpoint_name: AUC(0-t)

[2H]C([2H])([2H])CC(=O)c1cnc(NC(=O)C2CC2)cc1Nc1cccc(-c2cnc(N=S(C)(C)=O)cn2)c1OC | 66.5 µM·h

====

- test_method_notes: Pharmacokinetic study, oral administration, dog
- Assay type: in vivo
- test_parameters: plasma, 25 mg/kg, 25 mpk
endpoint_name: Cmax (µM)

[2H]C([2H])([2H])CC(=O)c1cnc(NC(=O)C2CC2)cc1Nc1cccc(-c2cnc(N=S(C)(C)=O)cn2)c1OC | 16.8

====

- test_method_notes: Pharmacokinetic study, oral administration, rat
- Format: in vivo, SD rats
- test_parameters: plasma, 30 mg/kg, 30 mpk
endpoint_name: Cmax (µM)

[2H]C([2H])([2H])CC(=O)c1cnc(NC(=O)C2CC2)cc1Nc1cccc(-c2cnc(N=S(C)(C)=O)cn2)c1OC [Compound of formula (I)] | 44.5

====

- target_or_test_system: TYK2 protein (His-TVMV-TYK2 JH2 (575-869)) (Homo sapiens)
- Construct: TYK2 protein (His-TVMV-TYK2 JH2 (575-869))
- Sequence (P29597 575-869, species assumed): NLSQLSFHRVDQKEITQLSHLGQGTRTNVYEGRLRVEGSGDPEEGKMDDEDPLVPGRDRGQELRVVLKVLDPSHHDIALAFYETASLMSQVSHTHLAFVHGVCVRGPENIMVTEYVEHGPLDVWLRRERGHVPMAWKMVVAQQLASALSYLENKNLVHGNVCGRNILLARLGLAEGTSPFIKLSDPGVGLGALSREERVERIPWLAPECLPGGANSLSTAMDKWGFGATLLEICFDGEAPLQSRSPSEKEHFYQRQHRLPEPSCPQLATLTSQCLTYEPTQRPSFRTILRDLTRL
- test_method_notes: Tyk2 JH2 enzyme activity test (HTRF tracer displacement)
- Assay type: binding
- test_parameters: HTRF, 90 minutes at room temperature
endpoint_name: IC50

[2H]C([2H])([2H])CC(=O)c1cnc(NC(=O)C2CC2)cc1Nc1cccc(-c2cnc(N=S(C)(C)=O)cn2)c1OC | 0.04 nM

====

- test_method_notes: Pharmacokinetic study, oral administration, mouse
- Format: in vivo, CD-1 mice
- test_parameters: plasma, 10 mg/kg, 10 mpk
endpoint_name: Tmax

[2H]C([2H])([2H])CC(=O)c1cnc(NC(=O)C2CC2)cc1Nc1cccc(-c2cnc(N=S(C)(C)=O)cn2)c1OC | 30 min

====

- test_method_notes: Pharmacokinetic study, oral administration, mouse
- Format: in vivo, CD-1 mice
- test_parameters: plasma, 10 mg/kg, 10 mpk
endpoint_name: Cmax (µM)

[2H]C([2H])([2H])CC(=O)c1cnc(NC(=O)C2CC2)cc1Nc1cccc(-c2cnc(N=S(C)(C)=O)cn2)c1OC | 32.4

====

- test_method_notes: Pharmacokinetic study, oral administration, rat
- Assay type: in vivo, SD rats
- test_parameters: plasma, 30 mg/kg, 30 mpk
endpoint_name: Tmax

[2H]C([2H])([2H])CC(=O)c1cnc(NC(=O)C2CC2)cc1Nc1cccc(-c2cnc(N=S(C)(C)=O)cn2)c1OC | 45 min
